Reference source: patent US11518764B2

biological target: BCL6 BTB domain (Homo sapiens (Human))
pKd: −log10 of the molar value.

SMILES_REPR | pKd
COc1ccc(Cl)c(NC(=O)Cn2cc(-c3cc(Cl)c(O)c(C(N)=O)c3)c3c(=O)n(C)cnc32)c1 | 7.08
COCCN1CCN(c2cc(NC(=O)Cn3cc(-c4cc(C(N)=O)c(O)c(F)c4F)c4c(=O)n(C)cnc43)c(Cl)c(F)n2)[C@@H](C)C1 | 8.14
C[C@@H]1CCCN1c1cc(NC(=O)Cn2cc(-c3cc(Cl)c(O)c(C(N)=O)c3)c3c(=O)n(C)cnc32)c(Cl)cn1 | 7.16

###

The reader will find pKd measurements below, all made with BCL6 BTB domain (Homo sapiens (Human), UniProt P41182).
pKd: −log10 of the molar value.
QUANTITY_KIND: pKd

MOLECULE | OBSERVED_VALUE
Cc1nc2c(c(-c3cc(C(N)=O)c(O)c4c3OCO4)cn2CC(=O)Nc2cc(N3CCOC[C@@H]3C)ncc2Cl)c(=O)n1C | 8.69
CCN1CCN(c2cc(NC(=O)Cn3cc(-c4cc(Cl)c(O)c(C(N)=O)c4)c4c(=O)n(C)c(C)nc43)c(Cl)cn2)[C@@H](C)C1 | 7.51
CC(C1CC1)N1CCN(c2cc(NC(=O)Cn3cc(-c4cc(Cl)c(O)c(C(N)=O)c4)c4c(=O)n(C)cnc43)c(Cl)cn2)[C@@H](C)C1 (stereo partly drawn) | 7.81
C[C@H]1CN(CC2CC2)CCN1c1cc(NC(=O)Cn2cc(-c3cc(Cl)c(O)c(C(N)=O)c3)c3c(=O)n(C)cnc32)c(Cl)c(F)n1 | 7.70
Cn1cnc2c(c(-c3cc(C(N)=O)c(O)cc3F)cn2CC(=O)Nc2cc(N3C[C@H]4CCO[C@H]4C3)ncc2Cl)c1=O | 7.30
Cn1cnc2c(c(-c3cc(Cl)c(O)c(C(N)=O)c3)cn2CC(=O)Nc2cc3c(cc2Cl)OCC(=O)N3CCN2CCOCC2)c1=O | 7.51
CO[C@@H]1CCN(c2cc(NC(=O)Cn3cc(-c4cc(C(N)=O)c(O)c(F)c4F)c4c(=O)n(C)cnc43)c(Cl)cn2)C1 | 7.26
C[C@H](C1CC1)N1CCN(c2cc(NC(=O)Cn3cc(-c4cc(C(N)=O)c(O)c(F)c4F)c4c(=O)n(C)cnc43)c(Cl)c(F)n2)[C@@H](C)C1 | 7.95
CN(C)CC1CN(c2cc(NC(=O)Cn3cc(-c4cc(Cl)c(O)c(C(N)=O)c4)c4c(=O)n(C)cnc43)c(Cl)cn2)CCO1 (stereo not drawn) | 8.01
C[C@@H]1COC[C@@H](C)N1c1cc(NC(=O)Cn2cc(-c3cc(Cl)c(O)c(C(N)=O)c3)c3c(=O)n(C)cnc32)c(Cl)cn1 | 7.41
C[C@@H](C1CC1)N1CCN(c2cc(NC(=O)Cn3cc(-c4cc(C(N)=O)c(O)c(F)c4F)c4c(=O)n(C)cnc43)c(Cl)cn2)[C@@H](C)C1 | 7.58
Cn1cnc2c(c(-c3cc(F)c(O)c(C(N)=O)c3)cn2CC(=O)Nc2cc(N3C[C@H]4CCO[C@H]4C3)ncc2Cl)c1=O | 8.75
C[C@H]1CN(CC(O)CCO)CCN1c1cc(NC(=O)Cn2cc(-c3cc(C(N)=O)c(O)c(F)c3F)c3c(=O)n(C)cnc32)c(Cl)c(F)n1 (stereo partly drawn) | 8.18
Cn1cnc2c(c(-c3cc(Cl)c(O)c(C(N)=O)c3)cn2CC(=O)Nc2cn3ccnc3cc2Cl)c1=O | 6.70
Cn1cnc2c(c(-c3cc(Cl)c(O)c(C(N)=O)c3)cn2CC(=O)Nc2cc(N3C4COCC5CC543)ncc2Cl)c1=O (stereo not drawn) | 7.22
CO[C@@H]1CN(c2cc(NC(=O)Cn3cc(-c4cc(Cl)c(O)c(C(N)=O)c4)c4c(=O)n(C)c(C(F)(F)F)nc43)c(Cl)cn2)C[C@@H]1F | 6.82
C[C@@H]1CN(c2cc(NC(=O)Cn3cc(-c4cc(Cl)c(O)c(C(N)=O)c4)c4c(=O)[nH]cnc43)c(Cl)cn2)C[C@H](C)O1 | 7.82
Cn1cnc2c(c(-c3cc(Cl)c(O)c(C(N)=O)c3)cn2CC(=O)Nc2c(F)c(F)nc(F)c2Cl)c1=O | 5.96
Cc1nc2c(c(-c3cc(Cl)c(O)c(C(N)=O)c3)cn2CC(=O)Nc2cc(N3C[C@@H](C)O[C@@H](C)C3)ncc2Cl)c(=O)[nH]1 | 7.96
Cn1cnc2c(c(-c3cc(C(N)=O)c(O)cc3F)cn2CC(=O)Nc2cc(N3CCOCC3)ncc2F)c1=O | 6.64
Cn1cnc2c(c(-c3cc(Cl)c(O)c(C(N)=O)c3)cn2CC(=O)Nc2cc(N3CCOC4CCCC43)ncc2Cl)c1=O (stereo not drawn) | 7.00
CCN1CCN(c2cc(NC(=O)Cn3cc(-c4cc(Cl)c(O)c(C(N)=O)c4)c4c(=O)n(C)c(C(F)(F)F)nc43)c(Cl)cn2)[C@@H](C)C1 | 7.13
C[C@H]1CN(CC2CC2)CCN1c1cc(NC(=O)Cn2cc(-c3cc(C(N)=O)c(O)c(F)c3F)c3c(=O)n(C)cnc32)c(Cl)c(F)n1 | 7.73
CO[C@H]1CN(c2cc(NC(=O)Cn3cc(-c4cc(C(N)=O)c(O)c(F)c4F)c4c(=O)n(C)cnc43)c(Cl)c(F)n2)C[C@H]1F | 7.65
